# assayed_target: UniProt:P04150
# protocol_details: Transrepression Assay (GITAR), TNFα-β-lactamase reporter, U937 cells
# Type: cell-based
# Set-up: U937 cells contain an endogenous glucocorticoid receptor (GR); endogenous in cells; host or cells: U937 cells stably transfected with the TNF-alpha promoter beta-lactamase reporter
# conditions: U-937, Table 4, literature compounds; read-out: GITAR EMAX
// values below are reported Emax
property_label: Emax

INSERT INTO measurements (compound, property_label, result) VALUES
  ('CO[C@@]1(CCc2ccccc2Cl)CCC2=Cc3c(cnn3-c3ccc(F)cc3)C[C@@]21C [Ex. 103 WO 04/075840 A2, reference compound]', 'Emax', '93.3%'),
  ('C[C@]12Cc3cnn(-c4ccc(F)cc4)c3C=C1CCC[C@@H]2[C@@H](O)c1ccccc1 [Ex. 35 WO 03/86294 A2, reference compound]', 'Emax', '78.8%'),
  ('C[C@]12Cc3cnn(-c4ccc(F)cc4)c3C=C1CCC[C@@H]2[C@@H](O)Cc1ccccc1 [Ex. 22 WO 03/086294 A2, reference compound]', 'Emax', '76.8%'),
  ('C[C@]12Cc3cnn(-c4ccc(F)cc4)c3C=C1CCC[C@@H]2[C@@H](O)CCc1ccccc1 [Ex. 30 WO 03/086294 A2, reference compound]', 'Emax', '82.9%'),
  ('C[C@]12Cc3cnn(-c4ccc(F)cc4)c3C=C1CC[C@@]2(O)C#Cc1ccccc1 [Ex. 1 WO 04/075840 A2, reference compound]', 'Emax', '12.8%');

----------
# assayed_target: GR (Homo sapiens)
# protocol_details: Trans-Activation Modulation of Glucocorticoid Receptor Assay (GRAMMER), MMTV-LUC reporter, A549 cells
# Type: cell-based
# Design: endogenous in cells
# conditions: A549 cells; relative to 300 nM dexamethasone
# Description: Trans-Activation Modulation of Glucocorticoid Receptor Assay […] The routine transient assay consists of plating 7,000-25,000 cells/well of a white, clear-bottom 96-well plate. […] The cells are trypsinized and counted to the right cell number in the proper amount of fresh media. […] Antagonist activity is calculated by determining the decrease in dexamethasone-induced activity in response to compound treatment relative to samples that were treated with dexamethasone alone. […]
Criterion: Transactivation A549 Cells GRAMMER Emax meeting or surpassing 20%. Met: Condition met. Not met: Condition not met.

INSERT INTO measurements (compound, assigned_class) VALUES
  ('C[C@]12Cc3cnn(-c4ccc(F)cc4)c3C=C1CC[C@@]2(O)CC(O)c1ccccn1 (single isomer, unassigned) [Example 2b]', 'Condition met'),
  ('Cc1cccnc1C(O)C[C@]1(O)CCC2=Cc3c(cnn3-c3ccc(F)cc3)C[C@@]21C (single isomer, unassigned) [Example 1b]', 'Condition met'),
  ('Cc1cccnc1C(O)C[C@]1(O)CCC2=Cc3c(cnn3-c3ccc(F)cc3)C[C@@]21C (single isomer, unassigned) [Example 1a]', 'Condition met'),
  ('C[C@]12Cc3cnn(-c4ccc(F)cc4)c3C=C1CC[C@@]2(O)CC(O)c1cc(Cl)ccn1 (single isomer, unassigned) [Example 8b]', 'Condition met'),
  ('C[C@]12Cc3cnn(-c4ccc(F)cc4)c3C=C1CC[C@@]2(O)CC(O)c1ccc(F)cn1 (single isomer, unassigned) [Example 7b]', 'Condition not met'),
  ('C[C@]12Cc3cnn(-c4ccc(F)cc4)c3C=C1CC[C@@]2(O)CC(O)c1cc(C(F)(F)F)ccn1 (single isomer, unassigned) [Example 5b]', 'Condition not met'),
  ('C[C@]12Cc3cnn(-c4ccc(F)cc4)c3C=C1CC[C@@]2(O)CC(O)c1cc(Br)ccn1 (single isomer, unassigned) [Example 10a]', 'Condition not met');

----------
# assayed_target: GR (Homo sapiens, UniProt P04150)
# Sequence (P04150 whole entry): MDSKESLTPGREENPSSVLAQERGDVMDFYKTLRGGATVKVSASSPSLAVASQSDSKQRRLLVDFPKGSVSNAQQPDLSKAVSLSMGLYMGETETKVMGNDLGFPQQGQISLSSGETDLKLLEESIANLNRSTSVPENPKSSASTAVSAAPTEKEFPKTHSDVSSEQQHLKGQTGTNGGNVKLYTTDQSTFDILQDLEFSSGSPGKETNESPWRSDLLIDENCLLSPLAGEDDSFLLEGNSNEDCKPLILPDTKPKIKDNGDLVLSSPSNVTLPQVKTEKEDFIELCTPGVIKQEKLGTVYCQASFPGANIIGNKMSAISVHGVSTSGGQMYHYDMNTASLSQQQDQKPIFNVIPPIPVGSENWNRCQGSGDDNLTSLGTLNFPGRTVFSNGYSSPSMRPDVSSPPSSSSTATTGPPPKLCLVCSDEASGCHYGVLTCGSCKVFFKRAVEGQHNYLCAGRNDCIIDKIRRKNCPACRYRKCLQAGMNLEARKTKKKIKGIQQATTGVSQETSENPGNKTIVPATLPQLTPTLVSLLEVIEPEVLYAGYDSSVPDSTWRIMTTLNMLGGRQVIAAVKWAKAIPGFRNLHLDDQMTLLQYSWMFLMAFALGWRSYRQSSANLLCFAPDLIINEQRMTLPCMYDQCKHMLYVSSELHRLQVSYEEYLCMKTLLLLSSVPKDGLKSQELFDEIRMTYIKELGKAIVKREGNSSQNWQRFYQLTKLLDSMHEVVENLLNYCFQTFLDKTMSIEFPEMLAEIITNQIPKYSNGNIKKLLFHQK
# protocol_details: GR Ligand Binding Assay (GR BIND), HeLa cell lysate, 3H-DEX
# Parameters: endogenous in cells; host or cells: HeLa (ATCC) cell lysate supernatant
# conditions: HeLa cell lysate, 3H-DEX; read-out: GR BIND Ki
// values below are reported Ki
property_label: Ki (nM)

INSERT INTO results (molecule, property_label, readout_units, measured_number) VALUES
  ('C[C@]12Cc3cnn(-c4ccc(F)cc4)c3C=C1CC[C@@]2(O)CC(O)c1ncccc1F (stereo partly shown)', 'Ki', 'nM', 7.2),
  ('C[C@]12Cc3cnn(-c4ccc(F)cc4)c3C=C1CC[C@@]2(O)CC(O)c1cc(Br)ccn1 (single isomer, unassigned) [Example 10b]', 'Ki', 'nM', 1.7),
  ('C[C@]12Cc3cnn(-c4ccc(F)cc4)c3C=C1CC[C@@]2(O)CC(O)c1cc(C(F)(F)F)ccn1 (single isomer, unassigned) [Example 5a]', 'Ki', 'nM', 2.6),
  ('C[C@]12Cc3cnn(-c4ccc(F)cc4)c3C=C1CC[C@@]2(O)CC(O)c1ccccn1 (single isomer, unassigned) [Example 2b]', 'Ki', 'nM', 6.4),
  ('C[C@]12Cc3cnn(-c4ccc(F)cc4)c3C=C1CC[C@@]2(O)CC(O)c1ccc(C(F)(F)F)cn1 (stereo partly shown)', 'Ki', 'nM', 2.7),
  ('Cc1cccnc1C(O)C[C@]1(O)CCC2=Cc3c(cnn3-c3ccc(F)cc3)C[C@@]21C (single isomer, unassigned) [Example 1a]', 'Ki', 'nM', 6.7),
  ('C[C@]12Cc3cnn(-c4ccc(F)cc4)c3C=C1CC[C@@]2(O)CC(O)c1ccc(F)cn1 (single isomer, unassigned) [Example 7b]', 'Ki', 'nM', 4.8),
  ('C[C@]12Cc3cnn(-c4ccc(F)cc4)c3C=C1CC[C@@]2(O)CC(O)c1ccc(F)cn1 (single isomer, unassigned) [Example 7a]', 'Ki', 'nM', 10.8),
  ('C[C@]12Cc3cnn(-c4ccc(F)cc4)c3C=C1CC[C@@]2(O)CC(O)c1ccccn1 (single isomer, unassigned) [Example 2a]', 'Ki', 'nM', 11.7),
  ('C[C@]12Cc3cnn(-c4ccc(F)cc4)c3C=C1CC[C@@]2(O)CC(O)c1cc(C#N)ccn1 (stereo partly shown)', 'Ki', 'nM', 2.1),
  ('Cc1ccnc(C(O)C[C@]2(O)CCC3=Cc4c(cnn4-c4ccc(F)cc4)C[C@@]32C)c1 (stereo partly shown)', 'Ki', 'nM', 3.9),
  ('C[C@]12Cc3cnn(-c4ccc(F)cc4)c3C=C1CC[C@@]2(O)CC(O)c1cc(Cl)ccn1 (single isomer, unassigned) [Example 8a]', 'Ki', 'nM', 5),
  ('COc1ccnc(C(O)C[C@]2(O)CCC3=Cc4c(cnn4-c4ccc(F)cc4)C[C@@]32C)c1 (stereo partly shown)', 'Ki', 'nM', 4.4);

----------
// values below are reported Transrepression U937 Cells GITAR Emax
# assayed_target: GR (Homo sapiens, UniProt P04150)
# protocol_details: Transrepression Assay (GITAR), TNFα-β-lactamase reporter, U937 cells
# Type: cell-based
# Design: U937 cells contain an endogenous glucocorticoid receptor (GR); endogenous in cells; host or cells: U937 cells stably transfected with the TNF-alpha promoter beta-lactamase reporter
# conditions: U937 cells; activity repressed by 100 nM dexamethasone set as 100%
property_label: Transrepression U937 Cells GITAR Emax (%)

INSERT INTO assay_data (compound, readout_units, measured_number) VALUES
  ('C[C@]12Cc3cnn(-c4ccc(F)cc4)c3C=C1CC[C@@]2(O)CC(O)c1cc(Br)ccn1 (single isomer, unassigned) [Example 10b]', '%', 64.3),
  ('Cc1cccnc1C(O)C[C@]1(O)CCC2=Cc3c(cnn3-c3ccc(F)cc3)C[C@@]21C (single isomer, unassigned)', '%', 58.3),
  ('C[C@]12Cc3cnn(-c4ccc(F)cc4)c3C=C1CC[C@@]2(O)CC(O)c1cc(Br)ccn1 (single isomer, unassigned) [Example 10a]', '%', 97.5),
  ('C[C@]12Cc3cnn(-c4ccc(F)cc4)c3C=C1CC[C@@]2(O)CC(O)c1cc(C(F)(F)F)ccn1 (single isomer, unassigned)', '%', 75.6);

----------
# protocol_details: Solubility at pH 2
# Format: physicochemical
# conditions: pH 2; read-out: Solubility At pH 2
// values below are reported solubility
property_label: solubility (µM)

INSERT INTO assay_data (compound, relation_qualifier, measured_number) VALUES
  ('C[C@]12Cc3cnn(-c4ccc(F)cc4)c3C=C1CC[C@@]2(O)CC(O)c1cc(C(F)(F)F)ccn1 (single isomer, unassigned) [Example 5b]', '=', 3),
  ('C[C@]12Cc3cnn(-c4ccc(F)cc4)c3C=C1CC[C@@]2(O)CC(O)c1cc(Cl)ccn1 (single isomer, unassigned) [Example 8a]', '<', 1),
  ('C[C@]12Cc3cnn(-c4ccc(F)cc4)c3C=C1CC[C@@]2(O)CC(O)c1cc(Cl)ccn1 (single isomer, unassigned) [Example 8b]', '=', 119),
  ('C[C@]12Cc3cnn(-c4ccc(F)cc4)c3C=C1CC[C@@]2(O)CC(O)c1cc(C(F)(F)F)ccn1 (single isomer, unassigned) [Example 5a]', '=', 18),
  ('C[C@]12Cc3cnn(-c4ccc(F)cc4)c3C=C1CC[C@@]2(O)CC(O)c1cc(Br)ccn1 (single isomer, unassigned) [Example 10b]', '=', 2),
  ('C[C@]12Cc3cnn(-c4ccc(F)cc4)c3C=C1CC[C@@]2(O)CC(O)c1ccc(F)cn1 (single isomer, unassigned)', '=', 35),
  ('C[C@]12Cc3cnn(-c4ccc(F)cc4)c3C=C1CC[C@@]2(O)CC(O)c1ccccn1 (single isomer, unassigned)', '=', 192),
  ('C[C@]12Cc3cnn(-c4ccc(F)cc4)c3C=C1CC[C@@]2(O)CC(O)c1cc(Br)ccn1 (single isomer, unassigned) [Example 10a]', '=', 7);
